Hello, the source for this data is patent US20240174680A1, in case you need it.

# test target: CDK2/Cyclin E1 (Homo sapiens, UniProt P24941)
# test name: CDK2/Cyclin E1 Caliper LabChip EZ Reader mobility shift assay
# Assay type: biochemical
# Set-up: purchased Eurofins 14-475
# assay context: read-out: Caliper Assay (CDK2/CCNE1): IC50
assay endpoint: IC50

INSERT INTO assay_data (compound, assay_endpoint, result) VALUES
  ('Cc1cc(C(=O)N2CC(C(=O)N[C@H](C(=O)N3CCCCC3)[C@@H](C)OCC3CCCCC3)C3(C2)CN(C(=O)[C@H]2CC2(C)C)C3)sn1 (stereo partly drawn)', 'IC50', '≤ 10 nM'),
  ('C[C@@H](OCC1CCCCC1)[C@H](NC(=O)[C@@H]1CN(C(=O)c2cnn(Cc3ccccc3)c2)CC12CN(C(=O)[C@H]1CC1(C)C)C2)C(N)=O', 'IC50', '≤ 10 nM'),
  ('C[C@@H](OCC1CCOCC1)[C@@H](COC1CCC(F)(F)CC1)NC(=O)[C@@H]1CN(C(=O)c2cncs2)CC12CN(C(=O)[C@H]1CC1(C)C)C2', 'IC50', '10 to 100 nM'),
  ('CN(C(=O)[C@H]1CCCN(C(=O)[C@@H]2CN(C(=O)c3cnn(Cc4ccccc4)c3)CC23CN(C(=O)[C@H]2CC2(C)C)C3)C1)C1CCCCC1', 'IC50', '1000 to 10000 nM'),
  ('CNC(=O)[C@@H](NC(=O)[C@H]1CN(C(=O)c2cnc[nH]2)CC12CN(C(=O)[C@H]1CC1(C)C)C2)[C@@H](C)OCc1ccccc1 [I-44B]', 'IC50', '> 10000 nM'),
  ('CC1(C)C[C@@H]1C(=O)N1CC2(CN(C(=O)c3cnn(Cc4ccccc4)c3)C[C@H]2C(=O)NCCOCc2ccccc2)C1 [I-96A]', 'IC50', '100 to 1000 nM'),
  ('C[C@@H](OCC1(C(F)(F)F)CC1)[C@H](NC(=O)[C@@H]1CN(C(=O)c2cncs2)CC12CN(C(=O)[C@H]1CC1(C)C)C2)C(=O)N1CCC(F)(F)CC1', 'IC50', '100 to 1000 nM'),
  ('C[C@@H](OCC1CCC(F)(F)CC1)[C@H](NC(=O)[C@@H]1CN(C(=O)c2cn[nH]c2)CC12CN(C(=O)C1(C(F)(F)F)CC1)C2)C(=O)N1CCC(F)(F)CC1 [I-188A]', 'IC50', '10 to 100 nM');

Exam item: Requested field: IC50. Item: C[C@@H](OCC1CCCCC1)[C@H](NC(=O)[C@@H]1CN(C(=O)c2cnn(Cc3ccccc3)c2)CC12CN(C(=O)[C@H]1CC1(C)C)C2)C(=O)N1CCC(F)(F)CC1 [I-149A]
Marked response: ≤ 10 nM

Exam item: // lookup IC50 for C[C@@H](OCC1CCCCC1)C(NC(=O)[C@@H]1CN(C(=O)c2cncs2)CC12CN(C(=O)[C@H]1CC1(C)C)C2)c1nnco1 (stereo in doubt)
Marked response: 10 to 100 nM

Exam item: Consider the compound shown here: CNC(=O)[C@@H](NC(=O)[C@H]1CN(C(=O)c2nccs2)CC12CN(C(=O)[C@H]1CC1(C)C)C2)[C@@H](C)OCC1CCCCC1 What is its recorded IC50?
Marked response: > 10000 nM

Exam item: # query: IC50 of entry CC1(C)C[C@@H]1C(=O)N1CC2(CN(C(=O)c3cncs3)C[C@H]2C(=O)NC(c2cccc(C3CCOCC3)n2)C2CCCO2)C1 (stereo partly drawn)
Marked response: 1000 to 10000 nM

* * *

As shown below, each of these compounds has a reported IC50 value.
# test target: CDK2/Cyclin E1 (Homo sapiens, UniProt P24941)
# test name: CDK2/Cyclin E1 Caliper LabChip EZ Reader mobility shift assay
# Assay type: biochemical
# Design: purchased Eurofins 14-475
# assay context: read-out: Caliper Assay (CDK2/CCNE1): IC50
# Protocol: Inhibition of CDK2/Cyclin E1 activity in the presence of compounds of the present disclosure was evaluated using a Caliper LabChip® EZ Reader mobility shift assay. […] The peptide substrate and product were measured, and the conversion ratio was used to determine the inhibition (as % activity and IC50 values) of CDK2/Cyclin E1. […]

INSERT INTO results (compound, assay_endpoint, result) VALUES
  ('CNC(=O)[C@@H](NC(=O)[C@@H]1CN(C(=O)c2cnc[nH]2)CC12CN(C(=O)[C@H]1CC1(C)C)C2)[C@@H](C)OCc1ccccc1 [I-44A]', 'IC50', '> 10 µM'),
  ('C[C@@H](OCC1CCCCC1)[C@@H](CO)NC(=O)[C@@H]1CN(C(=O)c2cncs2)CC12CN(C(=O)[C@H]1CC1(C)C)C2 [I-307]', 'IC50', '0.01 to 0.1 µM'),
  ('CC1(C)C[C@@H]1C(=O)N1CC2(CN(C(=O)c3cnn(Cc4ccccc4)c3)C[C@@H]2C(=O)N2CCCC(Cc3ccccc3)C2)C1 (stereo partly drawn) [I-91B]', 'IC50', '> 10 µM'),
  ('CNC(=O)[C@@H](NC(=O)[C@H]1CN(C(=O)c2cnn(Cc3ccccc3)c2)CC12CN(C(=O)[C@H]1CC1(C)C)C2)[C@H](C)OCC1CCCCC1 [I-165]', 'IC50', '> 10 µM');

Exam item: Form entry - test system: CDK2/Cyclin E1 (Homo sapiens, UniProt P24941); read-out: IC50; compound: CNC(=O)[C@H](CCCC1CCCCC1)NC(=O)[C@H]1CN(C(=O)c2cnn(Cc3ccccc3)c2)CC12CN(C(=O)[C@H]1CC1(C)C)C2 [I-155B]
Marked response: 1 to 10 µM

* * *

# test target: CDK2/Cyclin E1 (Homo sapiens, UniProt P24941)
# test name: CDK2/Cyclin E1 Caliper LabChip EZ Reader mobility shift assay
# Assay type: biochemical
# Design: purchased Eurofins 14-475
# assay context: read-out: Caliper Assay (CDK2/CCNE1): IC50
pIC50: −log10 of the molar value.
assay endpoint: pIC50

Worked examples follow.
INSERT INTO measurements (compound, assay_endpoint, result) VALUES
  ('C[C@@H](OCC1CCCCC1)[C@H](NC(=O)C1CN(C(=O)c2cnn(Cc3ccccc3)c2)CC12CN(C(=O)[C@H]1CC1(C)C)C2)C(=O)N1CCC(F)(F)CC1 (some centres unmarked) [I-149 mixture]', 'pIC50', '≥ 8.00'),
  ('C[C@@H](OCC1CCCCC1)[C@@H](COC1CCC(F)(F)CC1)NC(=O)[C@@H]1CN(C(=O)c2cnn(Cc3ccccc3)c2)CC12CN(C(=O)[C@H]1CC1(C)C)C2', 'pIC50', '≥ 8.00');

Exam item: // map CNC(=O)[C@H](COCc1ccccc1)NC(=O)[C@H]1CN(C(=O)c2cnn(Cc3ccccc3)c2)CC12CN(C(=O)C(C)(C)C)C2 [I-100B] to recorded pIC50 (system: CDK2/Cyclin E1 (Homo sapiens, UniProt P24941))
Marked response: < 5.00

Exam item: Report pIC50 for C[C@@H](OCc1ccccc1)[C@H](NC(=O)C1CN(C(=O)c2cnn(Cc3ccccc3)c2)CC12CN(C(=O)[C@H]1CC1(C)C)C2)C(=O)N1CCCC(CO)C1 (some centres unmarked) tested on CDK2/Cyclin E1 (Homo sapiens, UniProt P24941).
Marked response: 7.00 to 8.00

* * *

# test target: CDK2/Cyclin E1 (Homo sapiens, UniProt P24941)
# test name: CDK2/Cyclin E1 Caliper LabChip EZ Reader mobility shift assay
# Format: biochemical
# Design: purchased Eurofins 14-475
# assay context: read-out: Caliper Assay (CDK2/CCNE1): IC50
pIC50: −log10 of the molar value.
Reported pIC50 values follow for various compounds

Exam item: Look up pIC50 for this compound: CNC(=O)C(NC(=O)[C@@H]1CN(C(=O)c2cncs2)CC12CN(C(=O)C(C)(C)C1CC1)C2)c1cccc(C2CCCCC2)n1 (stereo partly shown)
Marked response: 7.00 to 8.00

* * *

// reported IC50 for each item listed
# test target: CDK2/Cyclin E1 (Homo sapiens, UniProt P24941)
# test name: CDK2/Cyclin E1 Caliper LabChip EZ Reader mobility shift assay
# Type: biochemical
# Design: purchased Eurofins 14-475
# assay context: read-out: Caliper Assay (CDK2/CCNE1): IC50

Reference set (3 entries):
INSERT INTO measurements (compound, test_target, result) VALUES
  ('Cc1ccc(CNC(=O)[C@@H]2CN(C(=O)c3cnn(Cc4ccccc4)c3)CC23CN(C(=O)[C@H]2CC2(C)C)C3)cc1 [I-363]', 'CDK2/Cyclin E1 (Homo sapiens, UniProt P24941)', '1000 to 10000 nM'),
  ('C[C@@H](OCC1CCCCC1)[C@@H](COC(F)(F)F)NC(=O)[C@@H]1CN(C(=O)c2cnn(Cc3ccccc3)c2)CC12CN(C(=O)[C@H]1CC1(C)C)C2 [I-309]', 'CDK2/Cyclin E1 (Homo sapiens, UniProt P24941)', '10 to 100 nM'),
  ('CNC(=O)[C@@H](NC(=O)[C@@H]1CN(C(=O)c2c[nH]c(=O)s2)CC12CN(C(=O)[C@H]1CC1(C)C)C2)[C@@H](C)OCC1CCCCC1 [I-184]', 'CDK2/Cyclin E1 (Homo sapiens, UniProt P24941)', '100 to 1000 nM');

Exam item: Record request: IC50 value, item Cc1ccc(CNC(=O)[C@@H]2CN(C(=O)c3cnn(Cc4ccccc4)c3)CC23CN(C(=O)[C@H]2CC2(C)C)C3)nn1 [I-252]
Marked response: 100 to 1000 nM

Exam item: Name the recorded IC50 for C[C@@H](OCC1CCCCC1)[C@H](NC(=O)[C@@H]1CN(C(=O)c2cnn(Cc3ccccc3)c2)CC12CN(C(=O)[C@H]1CC1(C)C)C2)C(=O)N1CCC[C@H]1CN [I-220] .
Marked response: 10 to 100 nM

Exam item: May I ask what IC50 has been recorded for COC[C@H]1CCCN(C(=O)[C@@H](NC(=O)[C@@H]2CN(C(=O)c3cncs3)CC23CN(C(=O)[C@H]2CC2(C)C)C3)[C@@H](C)OCc2ccc(OC(F)(F)F)cc2)C1 [I-320] ?
Marked response: ≤ 10 nM
